Kindly state IC50 for each of the entries shown.
target: Bile salt export pump (Homo sapiens, UniProt O95342); assay: Inhibition of human BSEP expressed in plasma membrane vesicles of Sf21 cells assessed as inhibition of ATP-dependent [3H]taurocholate uptake
Sequence (O95342 whole entry): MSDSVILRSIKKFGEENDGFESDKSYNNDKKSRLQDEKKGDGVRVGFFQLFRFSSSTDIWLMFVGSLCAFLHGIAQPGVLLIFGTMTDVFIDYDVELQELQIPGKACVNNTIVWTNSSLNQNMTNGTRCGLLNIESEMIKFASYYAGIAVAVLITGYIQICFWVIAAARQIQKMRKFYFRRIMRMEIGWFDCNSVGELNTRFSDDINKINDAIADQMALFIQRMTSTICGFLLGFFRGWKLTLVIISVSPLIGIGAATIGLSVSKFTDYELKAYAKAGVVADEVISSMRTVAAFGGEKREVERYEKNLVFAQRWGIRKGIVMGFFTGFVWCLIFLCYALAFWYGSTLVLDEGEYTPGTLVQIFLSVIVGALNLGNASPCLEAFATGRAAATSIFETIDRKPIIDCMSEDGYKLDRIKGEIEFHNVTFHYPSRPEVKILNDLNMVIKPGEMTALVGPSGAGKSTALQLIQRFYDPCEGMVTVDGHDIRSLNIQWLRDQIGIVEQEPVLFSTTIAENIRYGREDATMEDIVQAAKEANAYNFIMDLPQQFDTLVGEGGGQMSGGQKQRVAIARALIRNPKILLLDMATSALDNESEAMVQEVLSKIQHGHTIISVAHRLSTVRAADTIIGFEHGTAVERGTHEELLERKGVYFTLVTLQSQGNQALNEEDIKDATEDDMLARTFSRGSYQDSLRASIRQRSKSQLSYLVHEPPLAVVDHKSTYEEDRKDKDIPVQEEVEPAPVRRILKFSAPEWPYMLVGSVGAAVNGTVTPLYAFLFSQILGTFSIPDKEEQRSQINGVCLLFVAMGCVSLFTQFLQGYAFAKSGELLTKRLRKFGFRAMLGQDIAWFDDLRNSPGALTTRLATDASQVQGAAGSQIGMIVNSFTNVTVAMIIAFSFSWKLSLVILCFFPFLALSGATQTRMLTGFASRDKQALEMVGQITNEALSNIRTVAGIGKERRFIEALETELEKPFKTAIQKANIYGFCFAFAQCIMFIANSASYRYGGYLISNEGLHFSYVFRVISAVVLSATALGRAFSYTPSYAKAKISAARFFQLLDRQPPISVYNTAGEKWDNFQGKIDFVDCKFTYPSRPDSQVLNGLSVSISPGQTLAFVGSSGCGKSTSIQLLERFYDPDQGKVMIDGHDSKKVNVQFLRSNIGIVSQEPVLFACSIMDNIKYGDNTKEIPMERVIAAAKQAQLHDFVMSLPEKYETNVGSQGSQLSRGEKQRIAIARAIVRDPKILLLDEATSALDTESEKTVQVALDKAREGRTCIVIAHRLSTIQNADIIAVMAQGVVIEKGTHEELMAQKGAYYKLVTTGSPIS
# value in µM; strip the unit string

The compound listed as `Cc1ccc(C(=O)c2cc(O)c(O)c([N+](=O)[O-])c2)cc1` has a reported IC50 of 120

Quick note, IC50 for CCC(=O)O[C@H]1[C@H](O[C@@H]2[C@@H](C)[C@H](O[C@H]3C[C@@](C)(OC)[C@@H](O)[C@H](C)O3)[C@@H](C)C(=O)O[C@H](CC)[C@@](C)(O)[C@H](O)[C@@H](C)C(=O)[C@H](C)C[C@@]2(C)O)O[C@H](C)C[C@@H]1N(C)C [ERYTHROMYCIN ESTOLATE] landed at 4.1
